Hello, the source for this data is patent US20180201614A1, in case you need it.

# target-desc: EGFR L858R (Homo sapiens, UniProt P00533, L858R)
# Sequence (P00533 25-1210 L858R): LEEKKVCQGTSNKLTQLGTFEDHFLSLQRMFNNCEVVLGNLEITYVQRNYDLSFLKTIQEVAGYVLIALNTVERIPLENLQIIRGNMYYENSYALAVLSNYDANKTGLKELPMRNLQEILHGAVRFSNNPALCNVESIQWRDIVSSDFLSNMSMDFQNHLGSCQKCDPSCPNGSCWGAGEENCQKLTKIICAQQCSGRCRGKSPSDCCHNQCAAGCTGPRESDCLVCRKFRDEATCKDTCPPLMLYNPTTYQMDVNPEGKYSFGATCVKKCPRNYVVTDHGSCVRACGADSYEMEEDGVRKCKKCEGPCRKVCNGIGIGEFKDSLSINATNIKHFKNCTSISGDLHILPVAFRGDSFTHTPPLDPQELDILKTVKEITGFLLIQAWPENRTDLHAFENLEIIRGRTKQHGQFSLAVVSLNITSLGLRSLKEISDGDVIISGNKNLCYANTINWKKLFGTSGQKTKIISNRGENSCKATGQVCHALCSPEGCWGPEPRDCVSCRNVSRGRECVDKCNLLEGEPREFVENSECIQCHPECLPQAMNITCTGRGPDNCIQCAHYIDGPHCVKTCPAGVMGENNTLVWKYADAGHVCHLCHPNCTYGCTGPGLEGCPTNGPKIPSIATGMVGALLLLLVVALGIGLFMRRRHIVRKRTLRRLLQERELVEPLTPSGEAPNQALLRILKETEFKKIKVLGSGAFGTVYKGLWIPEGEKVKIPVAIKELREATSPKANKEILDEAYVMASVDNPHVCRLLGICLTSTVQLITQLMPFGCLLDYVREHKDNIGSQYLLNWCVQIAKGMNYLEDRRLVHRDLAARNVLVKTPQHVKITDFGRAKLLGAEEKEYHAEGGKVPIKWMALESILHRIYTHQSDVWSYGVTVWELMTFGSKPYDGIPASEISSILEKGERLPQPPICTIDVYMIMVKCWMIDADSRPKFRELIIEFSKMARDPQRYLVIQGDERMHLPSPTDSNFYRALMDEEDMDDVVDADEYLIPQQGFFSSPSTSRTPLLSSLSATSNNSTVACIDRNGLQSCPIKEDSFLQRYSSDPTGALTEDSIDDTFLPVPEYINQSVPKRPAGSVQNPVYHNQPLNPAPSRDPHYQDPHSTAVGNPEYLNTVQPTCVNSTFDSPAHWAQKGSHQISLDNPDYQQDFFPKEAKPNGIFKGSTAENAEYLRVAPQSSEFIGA
# assay: EGFR biochemical enzyme assay, L858R
Listed here are molecules together with their documented IC50.

Fill in IC50 for record C=CC(=O)N[C@@H]1CN(c2nc(Nc3cn(C)nc3OC)c3ncn(C45CC(C4)C5)c3n2)C[C@H]1F (racemic) ≤ 0.01 µM

Fill in IC50 for record C=CC(=O)N[C@@H]1CN(c2nc(Nc3cn(C)nc3OC)c3ncc(C)n3n2)C[C@H]1F ≤ 0.01 µM
